- assay.protocol: qHTS assay to test for compound auto fluorescence at 590 nm (red) in HEK293 cells (AID 720679)
- condition.info: red autofluorescence 540/590 nm; series mostly up to 46 µM
The source made the active and inactive calls. Calls come from the whole dose curve; as a rule, active = well fitted curve in the direction sought with a large enough effect in the repeat runs; inconclusive = weak or mixed curves; inactive = flat fitted curve, though single readings scatter.

| compound | outcome |
| --- | --- |
| NC(=O)C[C@@H](N)C(=O)O | inactive |
| CC1=C(C(=O)OCCN(Cc2ccccc2)c2ccccc2)C(c2cccc([N+](=O)[O-])c2)C(P2(=O)OCC(C)(C)CO2)=C(C)N1 (stereo not drawn) | inactive |
| CC(C)C[C@H](NC(=O)[C@@H](Cc1c[nH]c2ccccc12)NC(=O)[C@H](Cc1ccc(O)cc1)NC(=O)[C@H](CO)NC(=O)[C@H](Cc1c[nH]c2ccccc12)NC(=O)[C@H](Cc1cnc[nH]1)NC(=O)[C@@H]1CCC(=O)N1)C(=O)N[C@@H](CCCN=C(N)N)C(=O)N1CCC[C@@H]1C(=O)NCC(N)=O | inactive |

* * *

- assay.protocol: qHTS assay to test for compound auto fluorescence at 460 nm (blue) in HEK293 cells (AID 720678)
- condition.info: blue autofluorescence 405/460 nm; series mostly up to 46 µM
The source made the active and inactive calls. Calls come from the whole dose curve; as a rule, active = well fitted curve in the direction sought with a large enough effect in the repeat runs; inconclusive = weak or mixed curves; inactive = flat fitted curve, though single readings scatter.
attribute.measured: outcome

Reference set, count: 5
| compound | attribute.measured | measured.result |
| --- | --- | --- |
| OCC(O)CO | outcome | inactive |
| COc1ccc(C[C@@H](C)NC[C@H](O)c2ccc(O)c(NC=O)c2)cc1 | outcome | inactive |
| CCCCC(C)(O)C/C=C/[C@H]1[C@H](O)CC(=O)[C@@H]1CCCCCCC(=O)OC (some centres undefined) | outcome | inactive |
| O=c1[nH]cnc2[nH]cc(CN3CCCCC3)c12 | outcome | inactive |
| CCC(=O)OCC(=O)[C@@]1(OC(=O)CC)[C@H](C)C[C@H]2[C@@H]3CCC4=CC(=O)C=C[C@]4(C)[C@@]3(F)[C@@H](O)C[C@@]21C | outcome | inactive |

Task: Bench note: what outcome did `COC1=C(C(=O)O)N2C(=O)[C@@H](NC(=O)[C@H](N)C3=CCC=CC3)[C@H]2SC1` show?
Output: inactive

Task: Bench note: what outcome did `CCCC(=O)O[C@]1(C(=O)COC(=O)CC)[C@@H](C)C[C@H]2[C@@H]3CCC4=CC(=O)C=C[C@]4(C)[C@@]3(F)[C@@H](O)C[C@@]21C` show?
Output: inactive

Task: Bench note: what outcome did `O=C(O)[C@H]1/C(=C/CO)O[C@@H]2CC(=O)N21` show?
Output: inactive

Task: Bench note: what outcome did CN1CC(O)c2cc(N=NC(N)=O)c(O)cc21 (centres undefined) show?
Output: inactive

* * *

- assay.protocol: qHTS assay for small molecule disruptors of the mitochondrial membrane potential (AID 720635); note: potency is the fitted concentration of half-maximal effect
- condition.info: HepG2 mitochondrial membrane potential, Mito-MPS dye ratio; series mostly up to 83.2 µM
Records with an inconclusive call do not appear. The source made the active and inactive calls. Calls come from the whole dose curve; as a rule, active = well fitted inhibition curve with a large enough effect in the signal ratio in the repeat runs; inconclusive = weak or mixed curves, or effect the other way; inactive = flat fitted curve, though single readings scatter; the % refers to the signal ratio.
attribute.measured: Potency

Reference set, count: 5
| molecule | Potency |
| --- | --- |
| OCC(O)COc1ccc(Cl)cc1 (stereo unspecified) | inactive |
| N[C@@H](C(=O)N[C@@H]1C(=O)N2C(C(=O)O)=C(CSc3cn[nH]n3)CS[C@H]12)c1ccc(O)cc1 | inactive |
| CCC(=O)O[C@]1(C(=O)CCl)[C@@H](C)C[C@H]2[C@@H]3C[C@H](F)C4=CC(=O)C=C[C@]4(C)[C@@]3(F)[C@@H](O)C[C@@]21C | 11.9 µM (active) |
| C=CCCCCCCCCC(=O)OC | inactive |
| COc1ccc(/C=C/C(=O)OCCC(C)C)cc1 | inactive |

Task: Bench note: what Potency did `CO[C@H]1C=CO[C@@]2(C)Oc3c(C)c(O)c4c(O)c(c(/C=N/N5CCN(C6CCCC6)CC5)c(O)c4c3C2=O)NC(=O)/C(C)=C\C=C[C@H](C)[C@H](O)[C@@H](C)[C@@H](O)[C@@H](C)[C@H](OC(C)=O)[C@@H]1C` show?
Output: 1.19 µM (active)

Task: Bench note: what Potency did `CC(C)(C)CC(=O)OCC(=O)[C@@]12OC(C)(C)O[C@@H]1C[C@H]1[C@@H]3CCC4=CC(=O)C=C[C@]4(C)[C@@]3(F)[C@@H](O)C[C@@]12C` show?
Output: 13.3 µM (active)

Task: Bench note: what Potency did `O=C(Nc1ccc(Br)cc1)c1cc(Br)c(Br)s1` show?
Output: 0.668 µM (active)

Task: Bench note: what Potency did `O=C(CCCCCCCCCCCCC1CCCC1)Nc1ccc(S(=O)(=O)c2ccc(NC(=O)CCCCCCCCCCCCC3CCCC3)cc2)cc1` show?
Output: inactive

Task: Bench note: what Potency did `O=C(O)[C@H](CC(=O)N1C[C@H]2CCCC[C@H]2C1)Cc1ccccc1` show?
Output: inactive

Task: Bench note: what Potency did `O=P(O)(O)OC[C@H]1O[C@](O)(COP(=O)(O)O)[C@@H](O)[C@@H]1O` show?
Output: inactive

Task: Bench note: what Potency did `Cc1cc(/C=C/c2ccc3cc(N(C)C)ccc3[n+]2C)c(C)n1-c1ccccc1` show?
Output: 1.43 µM (active)

* * *

- target.or.test.system: Peroxisome proliferator-activated receptor gamma (Homo sapiens) (UniProt P37231)
- Sequence (P37231 whole entry, looked up): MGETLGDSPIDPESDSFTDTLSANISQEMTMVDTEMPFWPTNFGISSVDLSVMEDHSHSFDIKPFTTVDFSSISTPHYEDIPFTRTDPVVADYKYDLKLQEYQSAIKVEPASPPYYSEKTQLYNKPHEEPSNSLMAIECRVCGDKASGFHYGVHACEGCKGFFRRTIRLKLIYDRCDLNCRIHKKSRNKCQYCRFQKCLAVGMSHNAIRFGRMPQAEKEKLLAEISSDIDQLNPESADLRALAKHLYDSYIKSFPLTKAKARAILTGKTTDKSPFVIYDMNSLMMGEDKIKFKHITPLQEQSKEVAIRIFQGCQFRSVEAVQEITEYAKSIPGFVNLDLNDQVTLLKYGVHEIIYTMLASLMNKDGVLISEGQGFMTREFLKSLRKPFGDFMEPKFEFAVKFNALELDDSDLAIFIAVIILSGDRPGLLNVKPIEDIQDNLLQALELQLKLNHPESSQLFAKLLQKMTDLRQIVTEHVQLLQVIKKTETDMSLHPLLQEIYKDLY
- assay.protocol: qHTS assay to identify small molecule agonists of the peroxisome proliferator-activated receptor gamma (PPARg) signaling pathway (AID 743094)
- condition.info: HEK293H PPARg-UAS-bla, beta-lactamase FRET ratio, 17 h; series mostly up to 57 µM
Inconclusive results are not listed. Active and inactive are the calls of the source. Calls come from the whole dose curve; as a rule, active = well fitted activation curve with a large enough effect in the signal ratio in the repeat runs (not every such curve was filed as active); inconclusive = weak or mixed curves, or effect the other way; inactive = no such curve, though single readings can be large or run the other way; the % refers to the signal ratio.
attribute.measured: outcome

Reference set, count: 8
| compound | measured.result |
| --- | --- |
| CC(C)CCC[C@@H](C)[C@H]1CC(=O)C2=C3CC[C@H]4C[C@@H](O)CC[C@]4(C)[C@H]3CC[C@@]21C | inactive |
| CCCCCCCCCCCCCCCCCCCCCC(=O)Nc1ccn([C@@H]2O[C@H](CO)[C@@H](O)[C@@H]2O)c(=O)n1 | inactive |
| CN1c2cc(O)c(N=NC(N)=O)cc2CC1S(=O)(=O)O (stereo not drawn) | inactive |
| CC1(C)S[C@@H]2[C@H](NC(=O)[C@H](NC(=O)N3CCN(S(C)(=O)=O)C3=O)c3ccccc3)C(=O)N2[C@H]1C(=O)O | inactive |
| CN[C@@H]1[C@H](O[C@H]2[C@H](O[C@H]3[C@H](O)[C@@H](O)[C@H](N=C(N)N)[C@@H](O)[C@@H]3N=C(N)N)O[C@@H](C)[C@]2(O)CO)O[C@@H](CO)[C@H](O)[C@H]1O | inactive |
| CC1=C(/C=C/C(C)=C/C=C/C(C)=C/C(=O)Oc2c(C)c(C)c3c(c2C)CC[C@@](C)(CCC[C@H](C)CCC[C@H](C)CCCC(C)C)O3)C(C)(C)CCC1 | inactive |
| C[Se]CCC(N)C(=O)O (stereo not drawn) | inactive |
| Nc1ncnc2c1ncn2[C@@H]1O[C@H](COP(=O)(O)OP(=O)(O)OP(=O)(O)O)[C@@H](O)[C@H]1O | inactive |

Task: Bench note: what outcome did `CCCOc1ccc2nc(NC(=O)OC)sc2c1` show?
Output: inactive

Task: Bench note: what outcome did `CCC(=O)OCC(=O)[C@@]1(OC(=O)CC)[C@H](C)C[C@H]2[C@H]3[C@H]([C@@H](O)C[C@@]21C)[C@@]1(C)C=CC(=O)C=C1C[C@H]3Cl` show?
Output: inactive

* * *

- assay.protocol: qHTS assay to test for compound auto fluorescence at 535 nm (green) in HepG2 cells (AID 720675)
- condition.info: green autofluorescence 485/535 nm, 1 h; series mostly up to 46 µM
Activity calls are given as the source filed them. The call rests on the fitted dose curve; in most records, active means well fitted curve in the direction sought with a large enough effect in the repeat runs; inconclusive means weak or mixed curves; inactive means flat fitted curve, though single readings scatter.
attribute.measured: outcome

Reference set, count: 8
| compound | outcome |
| --- | --- |
| CC#CCC(C)[C@H](O)/C=C/[C@@H]1[C@H]2C/C(=C/CCCC(=O)O)C[C@H]2C[C@H]1O (some centres undefined) | inactive |
| C[C@@H]1C[C@H]2[C@@H]3CCC4=CC(=O)C=C[C@]4(C)[C@@]3(F)[C@@H](O)C[C@]2(C)[C@@]1(O)C(=O)COC(=O)c1cccc(S(=O)(=O)O)c1 | inactive |
| C[C@]12C=CC(=O)C=C1CC[C@@H]1[C@@H]2[C@@H](O)C[C@@]2(C)[C@H]1CC[C@]2(O)C(=O)COC(=O)CCC(=O)O | inactive |
| CCCCC(=O)O[C@H]1CC[C@H]2[C@@H]3CCc4cc(O)ccc4[C@H]3CC[C@]12C | inactive |
| CC(C)(C)C(=O)OCOC(=O)[C@@H]1N2C(=O)[C@@H](N=CN3CCCCCC3)[C@H]2SC1(C)C | inactive |
| COc1ccc(C[C@H](N)C(=O)N[C@H]2[C@@H](O)[C@H](n3cnc4c(N(C)C)ncnc43)O[C@@H]2CO)cc1 | inactive |
| CC(=O)Nc1ccc(OC(=O)c2ccccc2O)cc1 | inactive |
| CS(=O)(=O)OCCCNCCCOS(C)(=O)=O | inactive |

Here's the next entry for you.
Task: Bench note: what outcome did `Cc1ccc(C2(O)CCN(CCCC(=O)c3ccc(F)cc3)CC2)cc1` show?
Output: inactive
